From: paper PMC6681697

system: LNCaP xenografts; assay: Ex vivo biodistribution and blocking studies in mice bearing LNCaP xenografts; details: 1 h blocked (coinjection of DCFPyL 0.5 mg)
readout type: adrenal uptake (%ID/g)

C[N+](C)(Cc1cn(CC(=O)NCCOCCOCCC(=O)N[C@@H](Cc2ccc3ccccc3c2)C(=O)NCCCC[C@H](NC(=O)N[C@@H](CCC(=O)O)C(=O)O)C(=O)O)nn1)C[B-](F)(F)F [^18F-7] = 0.06
C[N+](C)(Cc1ccc(C(=O)NCCCC[C@H](NC(=O)N[C@@H](CCC(=O)O)C(=O)O)C(=O)O)cc1)C[B-](F)(F)F [^18F-1] = 0.35
O=C(O)CC[C@H](NC(=O)N[C@@H](CCCCNC(=O)[C@H](Cc1ccc2ccccc2c1)NC(=O)[C@H]1CC[C@H](CNC(=O)Cn2cc(C[n+]3ccc([B-](F)(F)F)cc3)nn2)CC1)C(=O)O)C(=O)O [^18F-6] = 0.20
O=C(O)CC[C@H](NC(=O)N[C@@H](CCCCNC(=O)c1ccc(Cn2cc(C[n+]3ccc([B-](F)(F)F)cc3)nn2)nc1)C(=O)O)C(=O)O [^18F-4] = 0.26
C[N+](C)(Cc1cn(CC(=O)N[C@@H](CCC(=O)O)C(=O)NCCCC[C@H](NC(=O)[C@H](CCC(=O)O)NC(=O)Cn2cc(C[N+](C)(C)C[B-](F)(F)F)nn2)C(=O)NC[C@H]2CC[C@H](C(=O)N[C@@H](Cc3ccc4ccccc4c3)C(=O)NCCCC[C@H](NC(=O)N[C@@H](CCC(=O)O)C(=O)O)C(=O)O)CC2)nn1)C[B-](F)(F)F [^18F-8] = 0.14

(A) C[N+](C)(Cc1cn(CC(=O)NC[C@H]2CC[C@H](C(=O)N[C@@H](Cc3ccc4ccccc4c3)C(=O)NCCCC[C@H](NC(=O)N[C@@H](CCC(=O)O)C(=O)O)C(=O)O)CC2)nn1)C[B-](F)(F)F [^18F-5]
(B) C[N+](C)(Cc1cn(Cc2ccc(C(=O)NCCCC[C@H](NC(=O)N[C@@H](CCC(=O)O)C(=O)O)C(=O)O)cc2)nn1)C[B-](F)(F)F [^18F-2]
# input # argmax over adrenal uptake for candidates A and B Indicate which entry you chose by stating its label.
# output A
